biological target: mMC4R (Mus musculus); assay: cAMP-based β-galactosidase reporter agonist assay in HEK293 cells, mMC4R; conditions: EC50 of substituted peptide divided by EC50 of α-MSH; potency loss
Sequence (P56450 whole entry): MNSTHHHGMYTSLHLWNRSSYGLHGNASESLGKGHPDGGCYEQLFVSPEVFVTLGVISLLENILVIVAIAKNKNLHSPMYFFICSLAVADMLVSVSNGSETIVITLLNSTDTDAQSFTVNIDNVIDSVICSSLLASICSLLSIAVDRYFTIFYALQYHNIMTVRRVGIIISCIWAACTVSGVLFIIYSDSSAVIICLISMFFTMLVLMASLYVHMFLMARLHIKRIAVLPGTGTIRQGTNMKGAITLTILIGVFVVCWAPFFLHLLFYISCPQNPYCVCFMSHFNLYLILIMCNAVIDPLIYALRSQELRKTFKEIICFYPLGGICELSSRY
mMC4R fold difference overview
# unit: fold | format: bare number

Past entries and their recorded results:
{"compound": "CSCC[C@H](NC(=O)[C@H](CO)NC(=O)[C@H](Cc1ccc(O)cc1)NC(=O)[C@H](CO)NC(C)=O)C(=O)N[C@@H](CCC(=O)O)C(=O)N[C@@H](Cc1c[nH]cn1)C(=O)N[C@@H](Cc1ccccc1)C(=O)N[C@@H](C)C(=O)N[C@@H](Cc1c[nH]c2ccccc12)C(=O)NCC(=O)N[C@@H](CCCCN)C(=O)N1CCC[C@H]1C(=O)N[C@H](C(N)=O)C(C)C [[Ala^8]α-MSH]", "unit.abbreviation": "fold", "mMC4R fold difference": 470}
{"compound": "CSCC[C@H](NC(=O)[C@H](CO)NC(=O)[C@H](Cc1ccc(O)cc1)NC(=O)[C@H](CO)NC(C)=O)C(=O)N[C@@H](CCC(=O)O)C(=O)N[C@@H](C)C(=O)N[C@@H](Cc1ccccc1)C(=O)N[C@@H](CCCNC(=N)N)C(=O)N[C@@H](Cc1c[nH]c2ccccc12)C(=O)NCC(=O)N[C@@H](CCCCN)C(=O)N1CCC[C@H]1C(=O)N[C@H](C(N)=O)C(C)C [[Ala^6]α-MSH]", "unit.abbreviation": "fold", "mMC4R fold difference": 110}

Now examine the next entry.
Field request: mMC4R fold difference | item: CSCC[C@H](NC(=O)[C@H](CO)NC(=O)[C@H](Cc1ccc(O)cc1)NC(=O)[C@H](CO)NC(C)=O)C(=O)N[C@@H](CCC(=O)O)C(=O)N[C@@H](Cc1c[nH]cn1)C(=O)N[C@@H](Cc1ccccc1)C(=O)N[C@@H](CCCNC(=N)N)C(=O)N[C@@H](C)C(=O)NCC(=O)N[C@@H](CCCCN)C(=O)N1CCC[C@H]1C(=O)N[C@H](C(N)=O)C(C)C [[Ala^9]α-MSH]
1500

---

target: mMC3R (Mus musculus, UniProt P33033); assay: cAMP-based β-galactosidase reporter agonist assay in HEK293 cells, mMC3R; conditions: EC50 of substituted peptide divided by EC50 of NDP-MSH; potency loss
Sequence (P33033 whole entry): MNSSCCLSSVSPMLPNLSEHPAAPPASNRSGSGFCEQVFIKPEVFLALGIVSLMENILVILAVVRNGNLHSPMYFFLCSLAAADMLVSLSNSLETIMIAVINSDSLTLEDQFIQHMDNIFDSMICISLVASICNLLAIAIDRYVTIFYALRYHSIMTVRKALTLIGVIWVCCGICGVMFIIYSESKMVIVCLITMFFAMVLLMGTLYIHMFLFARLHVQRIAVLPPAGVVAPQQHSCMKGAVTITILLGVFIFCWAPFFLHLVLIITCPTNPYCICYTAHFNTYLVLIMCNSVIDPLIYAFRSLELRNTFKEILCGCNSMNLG
property: mMC3R fold difference

{"compound": "CCCC[C@H](NC(=O)[C@H](CO)NC(=O)[C@H](Cc1ccc(O)cc1)NC(=O)[C@H](CO)NC(C)=O)C(=O)N[C@@H](CCC(=O)O)C(=O)N[C@@H](Cc1c[nH]cn1)C(=O)N[C@@H](C)C(=O)N[C@@H](CCCNC(=N)N)C(=O)N[C@@H](Cc1c[nH]c2ccccc12)C(=O)NCC(=O)N[C@@H](CCCCN)C(=O)N1CCC[C@H]1C(=O)N[C@H](C(N)=O)C(C)C [[Ala^7]NDP-MSH]", "property": "mMC3R fold difference", "experimental.value": "1080 fold"}
{"compound": "CCCC[C@H](NC(=O)[C@H](CO)NC(=O)[C@H](Cc1ccc(O)cc1)NC(=O)[C@H](CO)NC(C)=O)C(=O)N[C@@H](CCC(=O)O)C(=O)N[C@@H](Cc1c[nH]cn1)C(=O)N[C@H](Cc1ccccc1)C(=O)N[C@@H](CCCNC(=N)N)C(=O)N[C@@H](Cc1c[nH]c2ccccc12)C(=O)N[C@@H](C)C(=O)N[C@@H](CCCCN)C(=O)N1CCC[C@H]1C(=O)N[C@H](C(N)=O)C(C)C [[Ala^10]NDP-MSH]", "property": "mMC3R fold difference", "experimental.value": "unaltered"}
{"compound": "CCCC[C@H](NC(=O)[C@H](CO)NC(=O)[C@H](Cc1ccc(O)cc1)NC(=O)[C@H](CO)NC(C)=O)C(=O)N[C@@H](CCC(=O)O)C(=O)N[C@@H](Cc1c[nH]cn1)C(=O)N[C@H](Cc1ccccc1)C(=O)N[C@@H](CCCNC(=N)N)C(=O)N[C@@H](Cc1c[nH]c2ccccc12)C(=O)NCC(=O)N[C@@H](C)C(=O)N1CCC[C@H]1C(=O)N[C@H](C(N)=O)C(C)C [[Ala^11]NDP-MSH]", "property": "mMC3R fold difference", "experimental.value": "unaltered"}

---

molecular target: mMC5R (Mus musculus, UniProt P41149); assay: cAMP-based β-galactosidase reporter agonist assay in HEK293 cells, mMC5R; conditions: EC50 of substituted peptide divided by EC50 of α-MSH; potency loss
Sequence (P41149 whole entry): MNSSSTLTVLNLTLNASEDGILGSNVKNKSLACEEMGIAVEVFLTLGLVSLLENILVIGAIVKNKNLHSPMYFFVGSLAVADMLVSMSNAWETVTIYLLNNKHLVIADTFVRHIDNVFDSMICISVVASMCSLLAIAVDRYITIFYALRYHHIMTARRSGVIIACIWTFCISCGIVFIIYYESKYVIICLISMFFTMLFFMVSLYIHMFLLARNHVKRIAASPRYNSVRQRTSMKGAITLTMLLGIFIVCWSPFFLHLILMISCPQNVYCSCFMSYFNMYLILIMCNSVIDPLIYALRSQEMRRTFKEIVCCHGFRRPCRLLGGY
property: mMC5R fold difference (fold)
# unit: fold | format: bare number

{"molecule": "CSCC[C@H](NC(=O)[C@H](CO)NC(=O)[C@H](Cc1ccc(O)cc1)NC(=O)[C@H](CO)NC(C)=O)C(=O)N[C@@H](CCC(=O)O)C(=O)N[C@@H](C)C(=O)N[C@@H](Cc1ccccc1)C(=O)N[C@@H](CCCNC(=N)N)C(=O)N[C@@H](Cc1c[nH]c2ccccc12)C(=O)NCC(=O)N[C@@H](CCCCN)C(=O)N1CCC[C@H]1C(=O)N[C@H](C(N)=O)C(C)C [[Ala^6]α-MSH]", "target.of.assay": "mMC5R (Mus musculus, UniProt P41149)", "mMC5R fold difference, fold": 45}

Field request: mMC5R fold difference | item: CSCC[C@H](NC(=O)[C@H](CO)NC(=O)[C@H](Cc1ccc(O)cc1)NC(=O)[C@H](CO)NC(C)=O)C(=O)N[C@@H](CCC(=O)O)C(=O)N[C@@H](Cc1c[nH]cn1)C(=O)N[C@@H](C)C(=O)N[C@@H](CCCNC(=N)N)C(=O)N[C@@H](Cc1c[nH]c2ccccc12)C(=O)NCC(=O)N[C@@H](CCCCN)C(=O)N1CCC[C@H]1C(=O)N[C@H](C(N)=O)C(C)C [[Ala^7]α-MSH]
210

---

target: mMC3R (Mus musculus); assay: cAMP-based β-galactosidase reporter agonist assay in HEK293 cells, mMC3R
property: pEC50
pEC50 (log units): -log10 of the concentration in mol/L.

Field request: pEC50 | item: CSCC[C@H](NC(=O)[C@H](CO)NC(=O)[C@H](Cc1ccc(O)cc1)NC(=O)[C@H](C)NC(C)=O)C(=O)N[C@@H](CCC(=O)O)C(=O)N[C@@H](Cc1c[nH]cn1)C(=O)N[C@@H](Cc1ccccc1)C(=O)N[C@@H](CCCNC(=N)N)C(=O)N[C@@H](Cc1c[nH]c2ccccc12)C(=O)NCC(=O)N[C@@H](CCCCN)C(=O)N1CCC[C@H]1C(=O)N[C@H](C(N)=O)C(C)C [[Ala^1]α-MSH]
7.76

Field request: pEC50 | item: CC(=O)N[C@@H](CO)C(=O)N[C@@H](Cc1ccc(O)cc1)C(=O)N[C@@H](CO)C(=O)N[C@@H](C)C(=O)N[C@@H](CCC(=O)O)C(=O)N[C@@H](Cc1c[nH]cn1)C(=O)N[C@H](Cc1ccccc1)C(=O)N[C@@H](CCCNC(=N)N)C(=O)N[C@@H](Cc1c[nH]c2ccccc12)C(=O)NCC(=O)N[C@@H](CCCCN)C(=O)N1CCC[C@H]1C(=O)N[C@H](C(N)=O)C(C)C [[Ala^4]NDP-MSH]
9.44

Field request: pEC50 | item: CCCC[C@H](NC(=O)[C@H](CO)NC(=O)[C@H](Cc1ccc(O)cc1)NC(=O)[C@H](CO)NC(C)=O)C(=O)N[C@@H](CCC(=O)O)C(=O)N[C@@H](Cc1c[nH]cn1)C(=O)N[C@H](Cc1ccccc1)C(=O)N[C@@H](CCCNC(=N)N)C(=O)N[C@@H](Cc1c[nH]c2ccccc12)C(=O)NCC(=O)N[C@@H](C)C(=O)N1CCC[C@H]1C(=O)N[C@H](C(N)=O)C(C)C [[Ala^11]NDP-MSH]
9.77

---

EC50 overview
target: mMC3R (Mus musculus, UniProt P33033); experiment: cAMP-based β-galactosidase reporter agonist assay in HEK293 cells, mMC3R
# unit: nM | format: bare number

{"compound": "CSCC[C@H](NC(=O)[C@H](CO)NC(=O)[C@H](Cc1ccc(O)cc1)NC(=O)[C@H](CO)NC(C)=O)C(=O)N[C@@H](CCC(=O)O)C(=O)N[C@@H](Cc1c[nH]cn1)C(=O)N[C@@H](Cc1ccccc1)C(=O)N[C@@H](CCCNC(=N)N)C(=O)N[C@@H](C)C(=O)NCC(=O)N[C@@H](CCCCN)C(=O)N1CCC[C@H]1C(=O)N[C@H](C(N)=O)C(C)C [[Ala^9]α-MSH]", "unit.abbreviation": "nM", "EC50": 15700}

Field request: EC50 | item: CCCC[C@H](NC(=O)[C@H](CO)NC(=O)[C@H](Cc1ccc(O)cc1)NC(=O)[C@H](CO)NC(C)=O)C(=O)N[C@@H](C)C(=O)N[C@@H](Cc1c[nH]cn1)C(=O)N[C@H](Cc1ccccc1)C(=O)N[C@@H](CCCNC(=N)N)C(=O)N[C@@H](Cc1c[nH]c2ccccc12)C(=O)NCC(=O)N[C@@H](CCCCN)C(=O)N1CCC[C@H]1C(=O)N[C@H](C(N)=O)C(C)C [[Ala^5]NDP-MSH]
1.18

Field request: EC50 | item: CC(=O)N[C@@H](CO)C(=O)N[C@@H](Cc1ccc(O)cc1)C(=O)N[C@@H](CO)C(=O)N[C@@H](C)C(=O)N[C@@H](CCC(=O)O)C(=O)N[C@@H](Cc1c[nH]cn1)C(=O)N[C@@H](Cc1ccccc1)C(=O)N[C@@H](CCCNC(=N)N)C(=O)N[C@@H](Cc1c[nH]c2ccccc12)C(=O)NCC(=O)N[C@@H](CCCCN)C(=O)N1CCC[C@H]1C(=O)N[C@H](C(N)=O)C(C)C [[Ala^4]α-MSH]
17.4
